target: human HSP90α–p23 binding (Homo sapiens); construct: made in house; host or cells: E. coli Rosetta2(DE3) pLysS; assay: FRET inhibitor screening assay, human HSP90α-p23 binding; conditions: 10 or 100 µM, triplicates, 3 mM ATP, 1% DMSO, 15 min 37 °C
outcome-measure: hit identification (EmFRET/FLDD decrease of more than 3 SDs from binding control mean)

COc1cc2c(cc1OC)[C@@H]1C(=O)c3ccc4c(c3O[C@@H]1CO2)C=CC(C)(C)O4 | show no influence
COc1cc(C2Oc3cc([C@H]4Oc5cc(O)cc(O)c5C(=O)[C@@H]4O)ccc3OC2CO)ccc1O (some centres unmarked) | show no influence
CC1=C(CO)C(=O)O[C@@H]([C@@H](C)[C@H]2CC[C@H]3[C@@H]4C[C@H]5O[C@]56[C@@H](O)C=CC(=O)[C@]6(C)[C@H]4CC[C@]23C)C1 | show no influence
CC1=C(O)C(=O)C=C2C1=CC=C1[C@@]2(C)CC[C@@]2(C)[C@@H]3C[C@](C)(C(=O)O)CC[C@]3(C)CC[C@]12C | show no influence
